- experiment_summary: Volume of distribution at steady state in dog after iv administration
- Format: ADME, organism-based, Canis lupus familiaris
- assay_setup: in vivo, read-out: Vdss
Returns: string. Value is fulfilled if measured Vd is below 0.7 L/kg, and not fulfilled if it is greater than or equal to it.

### Prompt Vd under 0.7 L/kg? Item: C[C@]12C=CC(=O)C=C1CC[C@@H]1[C@@H]2C(=O)C[C@@]2(C)[C@H]1CC[C@]2(O)C(=O)CO [PREDNISONE]
### Response not fulfilled

### Prompt Vd under 0.7 L/kg? Item: CC1CCCC(C)N1CCCC(O)(c1ccccc1)c1ccccn1 (stereo not drawn) [PIRMENOL]
### Response not fulfilled

### Prompt Vd under 0.7 L/kg? Item: C[C@@H](O)[C@H]1C(=O)N2C(C(=O)[O-])=C(SC3Cn4cnc[n+]4C3)[C@H](C)[C@H]12 (stereo partly drawn) [BIAPENEM]
### Response fulfilled

### Prompt Vd under 0.7 L/kg? Item: O=c1ccc2ccccc2o1 [COUMARIN]
### Response not fulfilled

### Prompt Vd under 0.7 L/kg? Item: COc1cccc2c1C(=O)c1c(O)c3c(c(O)c1C2=O)C[C@@](O)(C(=O)CO)C[C@@H]3O[C@H]1C[C@H](N)[C@H](O)[C@H](C)O1 [DOXORUBICIN]
### Response not fulfilled

### Prompt Vd under 0.7 L/kg? Item: Cc1cc(O)c(C(=O)N[C@@H](C(=O)N[C@@H]2C(=O)N3C(C(=O)O)=C(CSc4nnnn4C)CS[C@H]23)c2ccc(O)cc2)cn1 [CEFPIRAMIDE]
### Response fulfilled

### Prompt Vd under 0.7 L/kg? Item: COc1ccc2c(c1)c(CC(=O)O)c(C)n2C(=O)c1ccc(Cl)cc1 [INDOMETHACIN]
### Response not fulfilled

### Prompt Vd under 0.7 L/kg? Item: O=C(O)C[C@H](NC(=O)CP(=O)(O)O)C(=O)O [PALA]
### Response fulfilled

### Prompt Vd under 0.7 L/kg? Item: "CC(=N)N1CC[C@H](SC2=C(C(=O)O)N3C(=O)[C@H]([C@@H](C)O)[C@H]3C2)C1"
### Response fulfilled

### Prompt Vd under 0.7 L/kg? Item: COCCOC(=O)C1=C(C)NC(C)=C(C(=O)OC(C)C)C1c1cccc([N+](=O)[O-])c1 (stereo not drawn) [NIMODIPINE]
### Response not fulfilled

### Prompt Vd under 0.7 L/kg? Item: NC(=O)c1cc[n+](COC[n+]2ccccc2/C=N/O)cc1 [HI-6]
### Response fulfilled

### Prompt Vd under 0.7 L/kg? Item: O=c1[nH]cnc2c1ncn2[C@H]1CC[C@@H](CO)O1 [DIDANOSINE]
### Response not fulfilled

### Prompt Vd under 0.7 L/kg? Item: Cc1cccnc1NS(=O)(=O)c1ccc(C#Cc2ccc(O)c(C(=O)O)c2)cc1 [SUSALIMOD]
### Response fulfilled

### Prompt Vd under 0.7 L/kg? Item: "C[C@@H](O)[C@H]1C(=O)N2C(C(=O)O)=C(COC(N)=O)S[C@H]12"
### Response fulfilled

### Prompt Vd under 0.7 L/kg? Item: CN(C)CCCC1(c2ccc(F)cc2)OCc2cc(C#N)ccc21 (stereo not drawn) [CITALOPRAM]
### Response not fulfilled

### Prompt Vd under 0.7 L/kg? Item: CC[C@]1(O)C[C@H]2CN(CCc3c([nH]c4ccccc34)[C@@](C(=O)OC)(c3cc4c(cc3OC)N(C=O)[C@H]3[C@@](O)(C(=O)OC)[C@H](OC(C)=O)[C@]5(CC)C=CCN6CC[C@]43[C@@H]65)C2)C1 [VINCRISTINE]
### Response not fulfilled

### Prompt Vd under 0.7 L/kg? Item: NC(=O)c1csc([C@@H]2O[C@H](CO)[C@@H](O)[C@H]2O)n1 [TIAZOFURIN]
### Response not fulfilled

### Prompt Vd under 0.7 L/kg? Item: Cc1c(C)c2c(c(C)c1O)CCC(C)(COc1ccc(CC3SC(=O)NC3=O)cc1)O2 (stereo not drawn) [TROGLITAZONE]
### Response not fulfilled

### Prompt Vd under 0.7 L/kg? Item: COC(=O)[C@H]1[C@@H](OC(=O)c2ccccc2)C[C@@H]2CC[C@H]1N2C [COCAINE]
### Response not fulfilled

### Prompt Vd under 0.7 L/kg? Item: CCOC(=O)C1(c2ccccc2)CCN(C)CC1 [MEPERIDINE]
### Response not fulfilled

### Prompt Vd under 0.7 L/kg? Item: O=[N+]([O-])O[C@H]1CO[C@H]2[C@@H]1OC[C@H]2O[N+](=O)[O-] [ISOSORBIDE DINITRATE]
### Response not fulfilled
